B1: Hairpin Ribozyme (parent)
chain: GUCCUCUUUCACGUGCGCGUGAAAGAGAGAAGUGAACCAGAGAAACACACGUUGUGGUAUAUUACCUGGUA

- Variants of: B1
- test-description: self-cleavage, relative activity (ratio to wild type); higher = more cleavage; co-transcriptional
Can you tell me self-cleavage for the items I'm about to list?

   variant_description  property_name  recorded_measurement
0             G1C C12G  self-cleavage                 0.188

Hey, can you go through the list below and give me self-cleavage for every item?
1. A22G U60G
2. A22G C38G

[0.416, 0.185]
